# pEC50 per record follows
Molecular target: SARS-CoV-2 Spike protein (Severe acute respiratory syndrome coronavirus 2)
Assay: Ternary binding of SARS-CoV-2 Spike protein (293T cells expressing Spike-GFP, IgG-AF647, flow cytometry)
Format: cell-based
Conditions: 293T cells expressing Spike-GFP; IgG-AF647 10 μg/ml; repeat values/batches listed separately; read-out: SARS-CoV-2 Ternary binding EC50
Positions of bridges follow the written chain, without caps; N, C: chain ends. Non-standard residues stand in square brackets, D forms with d. No end group written: not given here. *: point of attachment. Biotin = O=C1N[C@H]2[C@H](CS[C@H]2CCCCC(=O)*)N1; PEG4 = NCCOCCOCCOCCOCCC(=O)O; Nle = CCCC[C@H](N)C(=O)O; Aib = CC(C)(N)C(=O)O
Please report pEC50 as the negative decimal logarithm of the molar concentration, giving only the number.

Example entries and their recorded answers appear below.
DKEWILQKIYEIMRLLDELGHAEASMRVSDLIYEFMKKGDERLLEEAERLLEEVERGGDCAWHLGELVWCT-NH2 (disulfide 60-70) [Compound 172] = 10.70
Ac-DKEWILQKIYEIMRLLDELGHAEASMRVSDLIYEFMKKGPASPASPASPASDCAWHLGELVWCT (disulfide 53-63) [Compound 167] = 9.62

# pEC50 lookup, item Ac-DKEWILQKIYEIMRLLDELGHAEASMRVSDLIYEFMKKGDERLLEEAERLLEEVERGGGGGGGGDCAWHLGELVWCT-NH2 (disulfide 66-76) [Compound 142]
10.30

Requested field: pEC50. Item: DKEWILQKIYEIMRLLDELGHAEASMRVSDLIYEFMKKGDERLLEEAERLLEEVERGGGGDCAWHLGELVWCT-NH2 (disulfide 62-72) [Compound 171]
11.00

Find the recorded pEC50 belonging to Ac-DKEWILQKIYEIMRLLDELGHAEASMRVSDLIYEFMKKGDERLLEEAERLLEEVERGGDCAWHLGELVWCT-NH2 (disulfide 60-70) [Compound 145] and report it.
10.40

For the substance Ac-DKEWILQKIYEIMRLLDELGHAEASMRVSDLIYEFMKKGGGGGGGGGDCAWHLGELVWCT (disulfide 49-59) [Compound 166] , what pEC50 is on record?
9.64

Query (substance): Ac-DKEWILQKIYEIMRLLDELGHAEASMRVSDLIYEFMKKGDERLLEEAERLLEEVERGGGGGGDCAWHLGELVWCT-NH2 (disulfide 64-74) [Compound 143] ; field requested: pEC50
10.30

Need pEC50 of DKEWILQKIYEIMRLLDELGHAEASMRVSDLIYEFMKKGDERLLEEAERLLEEVERGGGGGGGGDCAWHLGELVWCT-NH2 (disulfide 66-76) [Compound 169] , thanks.
11.00

Given the entry Ac-DKEWILQKIYEIMRLLDELGHAEASMRVSDLIYEFMKKGDERLLEEAERLLEEVERGGGGDCAWHLGELVWCT-NH2 (disulfide 62-72) [Compound 144] , report its measured pEC50.
10.52

Suppose we examine the substance {Biotin-PEG4}-[Aib]SDKEWILQKIYEIMRLLDELGHAEAS[Nle]RVSDLIY[Aib]FMK[Aib]G [Compound 218] ; what pEC50 value has been reported?
10.00

Please give the measured pEC50 for this substance: DKEWILQKIYEIMRLLDELGHAEASMRVSDLIYEFMKKGDERLLEEAERLLEEVERGGGGGGDCAWHLGELVWCT-NH2 (disulfide 64-74) [Compound 170]
10.70
